molecular target: Serine/threonine-protein kinase TAO3 (Homo sapiens); conditions: at 1 µM
reported.metric: residual activity (%)
Give bare numbers, in %.

Worked examples follow.
smiles=Nc1ccc2ncnc(NCCc3ccc(Oc4ccccc4)cc3)c2c1 units_text=% endpoint_value=110
smiles=Cc1nc2cc3nc(-c4cccs4)cnc3cc2n1C units_text=% endpoint_value=98
smiles=N#C/C(=C(\N)Sc1ccc(N)cc1)c1ccccc1C(F)(F)F units_text=% endpoint_value=99
smiles=Cn1cnc2cc3c(Nc4cccc(Br)c4)ncnc3cc21 units_text=% endpoint_value=94
smiles=COc1cc2ncnc(Nc3ccc(O)c(Br)c3)c2cc1OC units_text=% endpoint_value=82
smiles=O=C1NC(=O)c2c1c1c3ccccc3[nH]c1c1[nH]c3cc(Br)ccc3c21 units_text=% endpoint_value=93
smiles=Cc1ccc(NC2=CC(=O)c3sc(C)nc3C2=O)cc1 units_text=% endpoint_value=94
smiles=O=c1cc(-c2cccc3c2Sc2ccccc2S3)oc(N2CCOCC2)c1 units_text=% endpoint_value=94

For each of the molecules below, state residual activity.
1. COc1ccc(CNc2nc(N(CCO)CCO)nc3c2ncn3C(C)C)cc1
2. O=C1c2ccccc2-[n+]2ccc3c([nH]c4ccccc43)c21
3. Oc1ccc(Nc2nc(-c3ccc(Cl)cc3)cs2)cc1
4. O=[N+]([O-])c1ccc(-c2nc(-c3ccc(F)cc3)c(-c3ccncc3)[nH]2)cc1

1: 92; 2: 89; 3: 99; 4: 98

Please go through the list and note residual activity for each molecule.
1. Oc1c2ccccc2c2c3c(cccc13)N=N2
2. O=C1NC(=O)/C(=C/c2ccc3c(c2)OC(F)(F)O3)S1
3. O=c1c2ccccc2[nH]c(=S)n1CCN1CCC(=C(c2ccc(F)cc2)c2ccc(F)cc2)CC1
4. Ic1cccc(CSc2nnc(-c3ccncc3)o2)c1
5. Oc1n[nH]c2nnc(-c3c(-c4ccccc4)nn4ccccc34)cc12
6. Cc1nc(-c2ccccc2)c(-c2ccncc2)o1
7. COc1cc2ncnc(Nc3ccc(NC(=O)c4ccccc4)cc3)c2cc1OC
8. N#Cc1cnc2cnc(NCc3cccnc3)cc2c1Nc1ccc(F)c(Cl)c1

69
103
109
93
89
107
102
18
